Measured FHH TP Cmax, listed per entry for reference.
Tested on: fresh human hepatocytes
Assay: Release of active metabolite in fresh human hepatocytes
Assay type: in vitro ADME
Details: 10 μM compound, fresh human hepatocytes
Record the value in pmol/mill cells, omitting the unit from your answer.

Worked set:
CCOc1nc(N)nc2c1ncn2[C@@H]1O[C@@H]2COP(=O)(OCCSSC(C)(C)C)O[C@H]2[C@@]1(C)F (single isomer, unassigned) [Compound 24 Diastereomer 1] | 154
CCOc1nc(N)nc2c1ncn2[C@@H]1O[C@@H]2COP(=O)(OCCC(=O)OC(C)C)O[C@H]2[C@@]1(C)O (single isomer, unassigned; diastereomer 2) [Compound 22 Diastereomer 2] | 28

Note: attention shifts to another entry.
Task: Param readout= FHH TP Cmax; system= fresh human hepatocytes; entry= CCOC(=O)COP1(=O)OC[C@H]2O[C@@H](n3cnc4c(OCC)nc(N)nc43)[C@](C)(F)[C@@H]2O1 (single isomer, unassigned; diastereomer 1) [Compound 7 Diastereomer 1] ; returns value.
Output: 31
